Source listed as patent US8735398B2.

# System: HCV 1b genotype
# protocol text: HCV replicon assay (HCV-neo replicon cells, wild-type)
# Format: cell-based, Hepatitis C virus
# run conditions: Hepatitis C virus, HCV 1b genotype replicon; class symbols; read-out: EC50 Range against HCV 1b
Below, each entry is listed alongside its reported EC50.

compound: COC(C(=O)N1C[C@H](OC(C)(C)C)C[C@H]1C(=O)Nc1ccc(-c2cnc(-c3ccc(NC(=O)[C@@H]4C[C@@H](OC(C)(C)C)CN4C(=O)C(OC)c4ccccc4)cc3)o2)cc1)c1ccccc1 (stereo partly drawn)
EC50: 4.57 to 99 nM

compound: O=C(Nc1ccc(-c2cnc(-c3ccc(NC(=O)[C@@H]4CCCN4C(=O)C4CCOC4)cc3)o2)cc1)[C@@H]1CCCN1C(=O)C1CCOC1 (stereo partly drawn)
EC50: 4.57 to 99 nM

compound: CC1CC1C(=O)N1CCC[C@H]1C(=O)Nc1ccc(-c2cnc(-c3ccc(NC(=O)[C@@H]4CCCN4C(=O)C4CC4C)cc3)o2)cc1 (stereo partly drawn)
EC50: 100 to 999 nM

compound: O=C(Nc1ccc(-c2cnc(-c3ccc(NC(=O)[C@@H]4C[C@@H](O)CN4C(=O)C4CCCCC4)cc3)o2)cc1)[C@@H]1C[C@@H](O)CN1C(=O)C1CCCCC1
EC50: 1000 to 10000 nM

compound: Cc1noc(C)c1C(=O)N1C[C@H](OC(C)(C)C)C[C@H]1C(=O)Nc1ccc(-c2cnc(-c3ccc(NC(=O)[C@@H]4C[C@@H](OC(C)(C)C)CN4C(=O)c4c(C)noc4C)cc3)o2)cc1
EC50: 100 to 999 nM

compound: COc1cccc(CC(=O)N2C[C@H](O)C[C@H]2C(=O)Nc2ccc(-c3cnc(-c4ccc(NC(=O)[C@@H]5C[C@@H](O)CN5C(=O)Cc5cccc(OC)c5)cc4)o3)cc2)c1
EC50: 100 to 999 nM

compound: O=C(Nc1ccc(-c2cnc(-c3ccc(NC(=O)[C@@H]4CCCN4C(=O)C4CCCO4)cc3)o2)cc1)[C@@H]1CCCN1C(=O)C1CCCO1 (stereo partly drawn)
EC50: 4.57 to 99 nM

compound: CC(C)C(C(=O)N1CCC[C@H]1C(=O)Nc1ccc(-c2cnc(-c3ccc(NC(=O)[C@@H]4CCCN4C(=O)C(C(C)C)N4C(=O)C5C6C=CC(C6)C5C4=O)cc3)o2)cc1)N1C(=O)C2C3C=CC(C3)C2C1=O (stereo partly drawn)
EC50: 100 to 999 nM

compound: CCn1c(=O)n(C(C)C(=O)N2CCC[C@H]2C(=O)Nc2ccc(-c3cnc(-c4ccc(NC(=O)[C@@H]5CCCN5C(=O)C(C)n5c(=O)n(CC)c6ccccc65)cc4)o3)cc2)c2ccccc21 (stereo partly drawn)
EC50: 1000 to 10000 nM

compound: CN(C)CC(=O)N1CCC[C@H]1C(=O)Nc1ccc(-c2cnc(-c3ccc(NC(=O)[C@@H]4CCCN4C(=O)CN(C)C)cc3)o2)cc1
EC50: 1000 to 10000 nM

compound: CC(C)(C)O[C@@H]1C[C@@H](C(=O)Nc2ccc(-c3cnc(-c4ccc(NC(=O)[C@@H]5C[C@@H](OC(C)(C)C)CN5C(=O)Cc5cccnc5)cc4)o3)cc2)N(C(=O)Cc2cccnc2)C1
EC50: 4.57 to 99 nM

compound: O=C(Nc1ccc(-c2cnc(-c3ccc(NC(=O)[C@@H]4CCCN4C(=O)C(c4ccccc4)n4c(=O)[nH]c5ccccc54)cc3)o2)cc1)[C@@H]1CCCN1C(=O)C(c1ccccc1)n1c(=O)[nH]c2ccccc21 (stereo partly drawn)
EC50: 100 to 999 nM

compound: CC(C(=O)N1CCC[C@H]1C(=O)Nc1ccc(-c2cnc(-c3ccc(NC(=O)[C@@H]4CCCN4C(=O)C(C)N4C(=O)C5C6CCC(C6)C5C4=O)cc3)o2)cc1)N1C(=O)C2C3CCC(C3)C2C1=O (stereo partly drawn)
EC50: 1000 to 10000 nM

compound: Cc1ncccc1C(=O)N1CCC[C@H]1C(=O)Nc1ccc(-c2cnc(-c3ccc(NC(=O)[C@@H]4CCCN4C(=O)c4cccnc4C)cc3)o2)cc1
EC50: 1000 to 10000 nM

compound: O=C(Nc1ccc(-c2cnc(-c3ccc(NC(=O)[C@@H]4CCCN4C(=O)C(O)c4cccnc4)cc3)o2)cc1)[C@@H]1CCCN1C(=O)C(O)c1cccnc1 (stereo partly drawn)
EC50: 4.57 to 99 nM

compound: O=C(Nc1ccc(-c2cnc(-c3ccc(NC(=O)[C@@H]4CCCN4C(=O)c4cc(F)cc(F)c4)cc3)o2)cc1)[C@@H]1CCCN1C(=O)c1cc(F)cc(F)c1
EC50: 100 to 999 nM

compound: C[C@H](NC(=O)[C@H](c1ccccc1)N(C)C)C(=O)Nc1ccc(-c2nnc(-c3ccc(NC(=O)[C@H](C)NC(=O)[C@H](c4ccccc4)N(C)C)cc3)o2)cc1
EC50: < 4.57 nM

compound: COC(C(=O)N1C[C@H](O)C[C@H]1C(=O)Nc1ccc(-c2cnc(-c3ccc(NC(=O)[C@@H]4C[C@@H](O)CN4C(=O)C(OC)c4ccccc4)cc3)o2)cc1)c1ccccc1 (stereo partly drawn)
EC50: 4.57 to 99 nM

compound: CC(C)(C)O[C@@H]1C[C@@H](C(=O)Nc2ccc(-c3cnc(-c4ccc(NC(=O)[C@@H]5C[C@@H](OC(C)(C)C)CN5C(=O)C(C)(C)C)cc4)o3)cc2)N(C(=O)C(C)(C)C)C1
EC50: 100 to 999 nM

compound: O=C(Nc1ccc(-c2cnc(-c3ccc(NC(=O)[C@@H]4CCCN4C(=O)CC4CC4)cc3)o2)cc1)[C@@H]1CCCN1C(=O)CC1CC1
EC50: 100 to 999 nM

compound: O=C(Nc1ccc(-c2cnc(-c3ccc(NC(=O)[C@@H]4CCCN4C(=O)C4CCCCC4)cc3)o2)cc1)[C@@H]1CCCN1C(=O)C1CCCCC1
EC50: 100 to 999 nM

---

Below, each entry is listed alongside its reported pEC50.
# System: HCV 1b genotype
# protocol text: HCV replicon assay (HCV-neo replicon cells, wild-type)
# Format: cell-based, Hepatitis C virus
# run conditions: Hepatitis C virus, HCV 1b genotype replicon; class symbol; read-out: EC50 Range against HCV 1b
# Experimental: An HCV Replicon assay was utilized in the present disclosure, and was prepared, conducted and validated as described in commonly owned PCT/US2006/022197 and in O'Boyle et al., Antimicrob. Agents Chemother, 49(4):1346-1353 (April 2005). […] The compounds were determined to have differing degrees of reduced inhibitory activity on cells containing mutations vs. the corresponding inhibitory potency against wild-type cells. […]
pEC50: −log10 of the molar value.

molecule: CC(=O)N[C@@H](C(=O)N1[C@H](C(=O)Nc2ccc(-c3cnc(-c4ccc(NC(=O)[C@@H]5C[C@@H]6C[C@@H]6N5C(=O)[C@H](NC(C)=O)c5ccccc5)cc4)o3)cc2)C[C@@H]2C[C@@H]21)c1ccccc1
measurement target: HCV 1b genotype
pEC50: 7.00 to 8.34
//
molecule: CC(NC(=O)[C@@H](O)c1ccccc1)C(=O)Nc1ccc(-c2cc(-c3ccc(NC(=O)[C@H](C)NC(=O)[C@@H](O)c4ccccc4)cc3)n[nH]2)cc1 (stereo in doubt)
measurement target: HCV 1b genotype
pEC50: 7.00 to 8.34
//
molecule: CC(=O)N1CCC[C@H]1C(=O)Nc1ccc(-c2ccc(-c3ccc(NC(=O)[C@@H]4CCCN4C(C)=O)cc3)o2)cc1
measurement target: HCV 1b genotype
pEC50: 6.00 to 7.00
//
molecule: O=C(Nc1ccc(-c2nnc(-c3ccc(NC(=O)[C@H]4CCCCN4C(=O)OCc4ccccc4)cc3)o2)cc1)[C@H]1CCCCN1C(=O)OCc1ccccc1
measurement target: HCV 1b genotype
pEC50: 5.00 to 6.00
//
molecule: C[C@H](NC(=O)[C@@](C)(O)c1ccccc1)C(=O)Nc1ccc(-c2cc(-c3ccc(NC(=O)[C@H](C)NC(=O)[C@@](C)(O)c4ccccc4)cc3)[nH]n2)cc1
measurement target: HCV 1b genotype
pEC50: > 8.34

---

# Test system: HCV 1b genotype
# protocol text: HCV replicon assay (HCV-neo replicon cells, wild-type)
# Type: cell-based, Hepatitis C virus
# run conditions: Hepatitis C virus, HCV 1b genotype replicon; class symbol; read-out: EC50 Range against HCV 1b
pEC50: −log10 of the molar value.
Below, each entry is listed alongside its reported pEC50.

compound: O=C(Nc1ccc(-c2cnc(-c3ccc(NC(=O)[C@@H]4CCCN4C(=O)CC4CC4)cc3)o2)cc1)C1CCCN1C(=O)CC1CC1 (some centres unmarked)
pEC50: 6.00 to 7.00

compound: CC(=O)N[C@@H](C(=O)N1CCCC1C(=O)Nc1ccc(-c2cnc(-c3ccc(NC(=O)C4CCCN4C(=O)[C@H](NC(C)=O)c4ccccc4)cc3)o2)cc1)c1ccccc1 (some centres unmarked)
pEC50: > 8.34

compound: CN(C)[C@@H](C(=O)N1CCC[C@H]1C(=O)N1CCC[C@H]1C(=O)Nc1ccc(-c2cnc(-c3ccc(NC(=O)[C@@H]4CCCN4C(=O)[C@@H]4CCCN4C(=O)[C@@H](c4ccccc4)N(C)C)cc3)o2)cc1)c1ccccc1
pEC50: 6.00 to 7.00

compound: O=C(Nc1cccc(-c2ccc(-c3cccc(NC(=O)[C@@H]4CCCN4C(=O)Cc4ccccc4)c3)s2)c1)[C@@H]1CCCN1C(=O)Cc1ccccc1
pEC50: 7.00 to 8.34

compound: O=C(Nc1ccc(-c2cnc(-c3ccc(NC(=O)[C@@H]4CCCN4C(=O)C(O)c4nccs4)cc3)o2)cc1)[C@@H]1CCCN1C(=O)C(O)c1nccs1 (some centres unmarked)
pEC50: 6.00 to 7.00

compound: O=C(Nc1ccc(-c2nc[nH]c2-c2ccc(NC(=O)[C@@H]3CCCN3C(=O)c3ccc4occc4c3)cc2)cc1)[C@@H]1CCCN1C(=O)c1ccc2occc2c1
pEC50: 6.00 to 7.00

compound: O=C(Nc1ccc(-c2cc(-c3ccc(NC(=O)[C@@H]4CCCN4C(=O)OCc4ccccc4)cc3)[nH]n2)cc1)[C@@H]1CCCN1C(=O)OCc1ccccc1
pEC50: 7.00 to 8.34

compound: CC(C)[C@H](NC(=O)OCc1ccccc1)C(=O)Nc1ccc(-c2cnc(-c3ccc(NC(=O)[C@@H](NC(=O)OCc4ccccc4)C(C)C)cc3)o2)cc1
pEC50: 6.00 to 7.00

compound: O=C(Nc1ccc(-c2nnc(-c3ccc(NC(=O)[C@H]4CCCN4C(=O)c4cccc(F)n4)cc3)o2)cc1)[C@H]1CCCN1C(=O)c1cccc(F)n1
pEC50: 6.00 to 7.00

compound: CC(C)[C@@H](NC(=O)OCc1ccccc1)C(=O)Nc1ccc(-c2cnc(-c3ccc(NC(=O)[C@H](NC(=O)OCc4ccccc4)C(C)C)cc3)o2)cc1
pEC50: 5.00 to 6.00

compound: CC(=O)N1CCC[C@H]1C(=O)Nc1ccc(-c2cc(-c3ccc(NC(=O)[C@@H]4CCCN4C(C)=O)cc3)[nH]n2)cc1
pEC50: 5.00 to 6.00

compound: O=C(Nc1ccc(-c2ccc(-c3ccc(NC(=O)[C@@H]4CCCN4C(=O)Cc4ccccc4)cc3)s2)cc1)[C@@H]1CCCN1C(=O)Cc1ccccc1
pEC50: 7.00 to 8.34

compound: CN(C)[C@@H](C(=O)N1CCC[C@H]1C(=O)Nc1ccc(-c2ccc(-c3ccc(NC(=O)[C@@H]4CCCN4C(=O)[C@@H](c4ccccc4)N(C)C)cc3)o2)cc1)c1ccccc1
pEC50: > 8.34

compound: C[C@H](NC(=O)c1cccc(Cl)n1)C(=O)Nc1ccc(-c2nnc(-c3ccc(NC(=O)[C@H](C)NC(=O)c4cccc(Cl)n4)cc3)o2)cc1
pEC50: 5.00 to 6.00

compound: CC(=O)N1CCC[C@H]1C(=O)Nc1ccc(-c2cnc(-c3ccc(NC(=O)[C@@H]4C=CCN4C(=O)Cc4cccs4)cc3)o2)cc1
pEC50: 5.00 to 6.00

compound: O=C(Nc1ccc(-c2nnc(-c3ccc(NC(=O)[C@@H]4CCCN4C(=O)c4cccc(Cl)n4)cc3)o2)cc1)[C@@H]1CCCN1C(=O)c1cccc(Cl)n1
pEC50: 5.00 to 6.00

compound: O=C(Nc1ccc(-c2nnc(-c3ccc(NC(=O)[C@@H]4CCCN4C(=O)c4cc(Cl)ccn4)cc3)o2)cc1)[C@@H]1CCCN1C(=O)c1cc(Cl)ccn1
pEC50: 6.00 to 7.00

compound: C[C@H](NC(=O)[C@](C)(O)c1ccccc1)C(=O)Nc1ccc(-c2nnc(-c3ccc(NC(=O)[C@H](C)NC(=O)[C@](C)(O)c4ccccc4)cc3)o2)cc1
pEC50: 6.00 to 7.00

compound: CC(O)(C(=O)N1CCC[C@H]1C(=O)Nc1ccc(-c2ccc(-c3ccc(NC(=O)[C@@H]4CCCN4C(=O)[C@@](C)(O)c4ccccc4)cc3)o2)cc1)c1ccccc1 (some centres unmarked)
pEC50: > 8.34

compound: O=C(Nc1ccc(-c2cnc(-c3ccc(NC(=O)[C@@H]4CCCN4C(=O)C4CCC4)cc3)o2)cc1)[C@@H]1CCCN1C(=O)C1CCC1
pEC50: 6.00 to 7.00

compound: O=C(Nc1ccc(-c2cc(-c3ccc(NC(=O)[C@@H]4C=CCN4C(=O)CC4CCCC4)cc3)[nH]n2)cc1)[C@@H]1C=CCN1C(=O)CC1CCCC1
pEC50: 5.00 to 6.00

compound: CCC(=O)N1CCC[C@H]1C(=O)Nc1ccc(-c2cc(-c3ccc(NC(=O)[C@@H]4CCCN4C(=O)CC)cc3)[nH]n2)cc1
pEC50: 5.00 to 6.00

compound: C[C@@](O)(C(=O)N1CCC[C@H]1C(=O)Nc1ccc(-c2nc[nH]c2-c2ccc(NC(=O)[C@@H]3CCCN3C(=O)[C@@](C)(O)c3ccccc3)cc2)cc1)c1ccccc1
pEC50: > 8.34
